- target: T1, cynomolgus DKK1 (cynomolgus monkey (Macaca fascicularis), UniProt A0A7N9IE82 32-266)
- T1 construct: also called cyno DKK1; monkey DKK1 (Novartis)
- T1 sequence: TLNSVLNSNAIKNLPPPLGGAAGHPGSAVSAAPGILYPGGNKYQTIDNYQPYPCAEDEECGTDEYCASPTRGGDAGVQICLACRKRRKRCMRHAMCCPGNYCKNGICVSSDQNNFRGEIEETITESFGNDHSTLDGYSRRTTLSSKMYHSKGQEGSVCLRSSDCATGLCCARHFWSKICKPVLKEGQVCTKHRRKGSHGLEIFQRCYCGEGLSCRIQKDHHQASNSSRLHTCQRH
- test-protocol: SPR (Biacore), DKK1 immobilised on CM5 chip, Fab as analyte
Readings of pKd for the listed binders
Worth noting: pKd values are minus log10 of concentrations stated in mol/L.

binder: MOR04455 (Fab, V domains shown, Fab with C-terminal FLAG and 6xHis tags) VH: QVQLVESGGGLVQPGGSLRLSCAASGFTFSSYGMSWVRQAPGKGLEWVSGISGSGSYTYYADSVKGRFTISRDNSKNTLYLQMNSLRAEDTAVYYCARHYMDHWGQGTLVTVSS VL: DIQMTQSPSSLSASVGDRVTITCRASQDISNYLHWYQQKPGKAPKLLIYGASNLQSGVPSRFSGSGSGTDFTLTISSLQPEDFAVYYCQQYDSIPMTFGQGTKVEIKR
recorded-measurement: 8.82
//
binder: MOR04456 (Fab, V domains shown, Fab with C-terminal FLAG and 6xHis tags) VH: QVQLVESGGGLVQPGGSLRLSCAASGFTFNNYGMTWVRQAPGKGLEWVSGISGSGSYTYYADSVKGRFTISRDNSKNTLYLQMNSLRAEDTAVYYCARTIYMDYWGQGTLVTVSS VL: DIVLTQSPATLSLSPGERATLSCRASQNLFSPYLAWYQQKPGQAPRLLIYGASNRATGVPARFSGSGSGTDFTLTISSLEPEDFATYYCQQYGDEPITFGQGTKVEIKR
recorded-measurement: 8.09

Now for another entry.
query: Sample MOR04516 (Fab, V domains shown, Fab with C-terminal FLAG and 6xHis tags; also called MOR4516) VH: QVQLVQSGAEVKKPGESLKISCKGSGYSFTNYYIGWVRQMPGKGLEWMGIIYPTDSYTNYSPSFQGQVTISADKSISTAYLQWSSLKASDTAMYYCARGIPFRMRGFDYWGQGTLVTVSS VL: DIVLTQPPSVSGAPGQRVTISCSGSSSNIGSSFVNWYQQLPGTAPKLLIGNNSNRPSGVPDRFSGSKSGTSASLAITGLQSEDEADYYCASFDMGSPNVVFGGGTKLTVLG — what was its pKd?
result: 8.72
